target: DNA-3-methyladenine glycosylase (Homo sapiens, UniProt P29372); test: Inhibition of human AAG using HXO2/Loop01 oligonucleotide as substrate incubated for 2 hrs by colorimetric based microplate assay
Sequence (P29372 whole entry): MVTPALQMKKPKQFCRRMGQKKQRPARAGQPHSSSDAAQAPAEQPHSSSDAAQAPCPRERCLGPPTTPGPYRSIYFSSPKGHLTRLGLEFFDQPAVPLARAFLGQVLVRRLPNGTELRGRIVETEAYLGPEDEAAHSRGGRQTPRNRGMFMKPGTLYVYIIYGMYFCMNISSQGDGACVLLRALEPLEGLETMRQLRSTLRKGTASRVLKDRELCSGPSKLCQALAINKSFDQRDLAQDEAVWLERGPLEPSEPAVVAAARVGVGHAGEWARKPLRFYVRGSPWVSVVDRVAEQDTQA
Active and inactive are the calls of the source. No cut-off for these calls is given here.
EXPERIMENTAL_ENDPOINT: inhibition

* OC[C@H]1CN(Cc2ncc[nH]2)C[C@@H]1O | Active
* OC[C@H]1CN(Cc2ccccn2)C[C@@H]1O | Active
* OC[C@H]1CN(Cc2cccnc2)C[C@@H]1O | Active
* OC[C@H]1CN(Cc2ccncc2)C[C@@H]1O | Active
